The reported numbers originate from ChEMBL document CHEMBL3433997.

Molecular target: Solute carrier family 2, facilitated glucose transporter member 1 (Homo sapiens)
Assay: ST_JUDE_LEISH: Cytotoxicity at 2uM final concentration against transgenic Leishmania Mexicana promastigotes LmGLUT1 that are glucose transport deficient and complemented with the human glucose transporter GLUT1. Activity is measured by DNA content using SYBR green in vitro
Type: functional
Overview of reported inhibition across a group of compounds:
Measured endpoint: inhibition (%)

>>> readout_number("CS(=O)(=O)c1cccc(-c2cnc(N)c3cc(-c4cccc(F)c4)ccc23)c1")
1.57
>>> readout_number("O=C(c1ccc(O)c(-c2cc(Cl)cc(Cl)c2)c1)N1CCCC1")
1.89
>>> readout_number("O=C(/C=C/c1ccc(Cl)c(Cl)c1)NCCCCCCN1CCN(C(=O)Nc2ccc(Cl)c(Cl)c2)CC1")
2.42
>>> readout_number("COc1ccc(-c2nc(NC(=O)CS(=O)(=O)c3ccccc3)sc2C)cc1")
8.8
>>> readout_number("Cc1cc(C)n(-c2nc(Nc3cccc(C(F)(F)F)c3)nc(-n3nc(C)cc3C)n2)n1")
-2.75
>>> readout_number("O=C(NC1CCN(Cc2ccccc2)CC1)c1ccc2c(=O)n(Cc3ccc(Cl)cc3)c(=S)[nH]c2c1")
0.69
>>> readout_number("Cc1ccc(C(=O)Nc2ccc(Nc3ccnc4cc(-c5ccncc5)ccc34)cc2O)cc1")
-0.09
>>> readout_number("COc1ccc(CN2CCC(CNCCc3ccccc3Oc3ccccc3)CC2)cc1")
-1.06
>>> readout_number("COc1ccc(-c2nnc(Sc3ccc(C#N)c([N+](=O)[O-])c3)n2CCC(C)C)cc1")
5.19
>>> readout_number("CCOc1ccc2[nH]c(C)cc(=NN=Cc3cccnc3)c2c1")
8.63

---

Target: Hexose transporter 1 (Plasmodium falciparum) (UniProt O97467)
Assay: ST_JUDE_LEISH: Cytotoxicity at 2uM final concentration against transgenic Leishmania Mexicana promastigotes LmPfHT that are glucose transport deficient and complemented with the Plasmodium falciparum hexose transporter. Activity is measured by DNA content using SYBR green in vitro
Assay type: functional
Measured endpoint: inhibition (%)

>>> readout_number("CC(=O)N(C)C1CCN(Cc2cccc(-c3ccc(-c4nc5cc(C(F)(F)F)ccc5[nH]4)cc3)c2)C1 (centres undefined)")
-4.29
>>> readout_number("Cc1noc(-c2cccs2)c1C(=O)NCCc1cccc(Cl)c1")
5.32
>>> readout_number("CC(Cc1ccc(CNC(=O)NCc2ccc(CC(C)NCCc3cccc(Cl)c3)cc2)cc1)NCCc1cccc(Cl)c1 (centres undefined)")
79
>>> readout_number("O=C(Nc1ccccc1)c1ccc(N2CCC(COc3cccc(C(F)(F)F)c3)CC2)nc1")
1.65
>>> readout_number("Cc1cc(C)cc(Oc2c(C(F)(F)F)oc3c(CN4CC(C)OC(C)C4)c(O)ccc3c2=O)c1 (centres undefined)")
-1.36
>>> readout_number("Cc1nc(-c2cccc(NC(C)C(=O)Nc3cc(C(F)(F)F)ccc3N3CCOCC3)c2)cs1 (centres undefined)")
0.47
>>> readout_number("OCc1ccc(-c2cncc(Nc3ccc(F)c(Cl)c3)c2)cc1")
4.21
>>> readout_number("COc1ccc(CCNC(=O)c2ccccc2O)cc1-c1ccc(C(C)(C)C)cc1")
2.33
>>> readout_number("O=C(Nc1cccc(-c2cccc(-c3nc4cc(C(F)(F)F)ccc4[nH]3)c2)c1)c1ccncc1")
7.47
